- measurement target: TRAF2 and NCK-interacting protein kinase (Homo sapiens)
Class membership depends on ΔTm alone; the intervals are small value = under 0.1 °C, mid value = from 0.1 °C up to 1 °C, large value = 1 °C and over

compound | qualitative label
c1ccc(-c2n[nH]c3c2oc2ccccc23)cc1 | mid value

Field: class (ΔTm) — entry: N#C/C(=C(/N)Sc1ccc(N)cc1)c1ccccc1C(F)(F)F
small value

Field: class (ΔTm) — entry: OC[C@H]1O[C@@H](n2cnc3cc(Cl)c(Cl)cc32)[C@H](O)[C@@H]1O
mid value

Field: class (ΔTm) — entry: NCCNc1ncc(C(N)=O)c(Nc2cccc(C(F)(F)F)c2)n1
large value

Field: class (ΔTm) — entry: O=C1Nc2ccccc2/C1=C1/Nc2ccccc2/C1=N\O
large value

Field: class (ΔTm) — entry: O=C1Nc2ccccc2/C1=C\c1ccc[nH]1
large value

Field: class (ΔTm) — entry: COc1cc(/C=C/C(=O)CC(=O)/C=C/c2ccc(O)c(OC)c2)ccc1O
large value

Field: class (ΔTm) — entry: COc1ccc2c(c[n+](C)c3c4cc5c(cc4ccc23)OCO5)c1OC [CHELERYTHRINE CHLORIDE]
small value

Field: class (ΔTm) — entry: O=C(O)c1cc(N(Cc2ccccc2O)Cc2cc(O)ccc2O)ccc1O
small value

Field: class (ΔTm) — entry: Nc1cc2ncnc(Nc3cccc(Br)c3)c2cc1N
mid value
